- target of assay: human adenosine A2A receptor (Homo sapiens, UniProt P29274)
- Construct: expressed in transfected cells; host or cells: CHO cells, Semliki Forest virus expression system; membrane preparation
- Sequence (P29274 whole entry): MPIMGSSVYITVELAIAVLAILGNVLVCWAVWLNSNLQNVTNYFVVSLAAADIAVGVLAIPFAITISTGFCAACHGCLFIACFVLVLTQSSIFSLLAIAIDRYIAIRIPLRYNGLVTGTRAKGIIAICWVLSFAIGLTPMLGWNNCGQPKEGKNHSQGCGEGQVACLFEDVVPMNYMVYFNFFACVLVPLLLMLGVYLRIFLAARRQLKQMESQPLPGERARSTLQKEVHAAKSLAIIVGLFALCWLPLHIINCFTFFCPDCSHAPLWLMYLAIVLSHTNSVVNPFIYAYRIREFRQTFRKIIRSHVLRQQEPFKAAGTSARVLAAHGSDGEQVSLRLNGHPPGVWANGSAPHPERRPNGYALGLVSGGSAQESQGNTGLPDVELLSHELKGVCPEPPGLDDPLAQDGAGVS
- test method notes: Human adenosine A2A receptor [3H]-SCH-58261 binding assay
- cond: affinity to human adenosine A2A receptor; read-out: Ki HA2A
- Protocol: Human Adenosine A2A Receptor The human adenosine A2A receptor was recombinantly expressed in chinese hamster ovary (CHO) cells using the semliki forest virus expression system. […] Assay plates were incubated for 1 hour at room temperature before centrifugation and then bound ligand determined using a Packard Topcount scintillation counter. IC50 values were calculated using a non-linear curve fitting program and Ki values calculated using the Cheng-Prussoff equation.
pKi: −log10 of the molar value.
Given measured pKi, output Met if it is greater than or equal to 7 and Not met if not.

# given smiles, target of assay, label
data = [
    ("Nc1cc(C(=O)N(Cc2ccccc2)Cc2ccccc2)cc2nc(-c3nccs3)nn12", "human adenosine A2A receptor (Homo sapiens, UniProt P29274)", "Met"),
    ("CC(C)N(C(=O)c1cc(N)n2nc(-c3nccs3)nc2c1)C(C)C", "human adenosine A2A receptor (Homo sapiens, UniProt P29274)", "Not met"),
    ("Nc1cc(C(=O)NCc2ccccc2Br)cc2nc(-c3ccccc3)nn12", "human adenosine A2A receptor (Homo sapiens, UniProt P29274)", "Met"),
    ("Nc1cc(C(=O)N2CCCC2)cc2nc(-c3cc(Br)co3)nn12", "human adenosine A2A receptor (Homo sapiens, UniProt P29274)", "Met"),
    ("Nc1cc(C(=O)N2CCC2)cc2nc(-c3ccc(Cl)o3)nn12", "human adenosine A2A receptor (Homo sapiens, UniProt P29274)", "Not met"),
    ("COc1ccccc1CNC(=O)c1cc(N)n2nc(-c3ccoc3)nc2c1", "human adenosine A2A receptor (Homo sapiens, UniProt P29274)", "Met"),
    ("CC(C)CN(CC(C)C)C(=O)c1cc(N)n2nc(-c3ccc(Br)o3)nc2c1", "human adenosine A2A receptor (Homo sapiens, UniProt P29274)", "Met"),
]

* * *

- target of assay: human adenosine A2A receptor (Homo sapiens)
- Construct: expressed in transfected cells; host or cells: CHO cells, Semliki Forest virus expression system; membrane preparation
- test method notes: Human adenosine A2A receptor [3H]-SCH-58261 binding assay
- cond: affinity to human adenosine A2A receptor; read-out: Ki HA2A
Reported Ki values for a set of compounds
readout kind: Ki (nM)

# compound, readout kind, measured value
rows = [
    ("CCCCN(CC)C(=O)c1cc(N)n2nc(-c3ccc(Br)o3)nc2c1", "Ki", 3.2),
    ("COCCN(CCOC)C(=O)c1cc(N)n2nc(-c3ccc(Br)o3)nc2c1", "Ki", 5.2),
    ("CCN(C(=O)c1cc(N)n2nc(-c3ccccn3)nc2c1)C1CCCCC1", "Ki", 49.6),
    ("CCCNC(=O)c1cc(N)n2nc(-c3cccnc3)nc2c1", "Ki", 309),
    ("CC1CCCN1C(=O)c1cc(N)n2nc(-c3nccs3)nc2c1 (centres unmarked)", "Ki", 32.4),
    ("CCN(C(=O)c1cc(N)n2nc(-c3ccc(Cl)o3)nc2c1)C(C)C", "Ki", 3.2),
    ("COc1ccc(CNC(=O)c2cc(N)n3nc(-c4ccccn4)nc3c2)cc1", "Ki", 341),
    ("CCCCN(C)C(=O)c1cc(N)n2nc(-c3nccs3)nc2c1", "Ki", 142),
    ("CC(C)N(C(=O)c1cc(N)n2nc(-c3ccc(Br)o3)nc2c1)C1CCCCC1", "Ki", 2.9),
    ("COc1cc(CNC(=O)c2cc(N)n3nc(-c4ccco4)nc3c2)cc(OC)c1OC", "Ki", 45.2),
    ("CN(CCc1ccccc1)C(=O)c1cc(N)n2nc(-c3nccs3)nc2c1", "Ki", 127),
]

Source of measurements: patent US6506772B1
